molecular target: α7 (Homo sapiens); experiment: Oocyte two-electrode voltage-clamp electrophysiology, α7; details: Xenopus laevis oocytes, peak currents
Sequence (P36544 23-502): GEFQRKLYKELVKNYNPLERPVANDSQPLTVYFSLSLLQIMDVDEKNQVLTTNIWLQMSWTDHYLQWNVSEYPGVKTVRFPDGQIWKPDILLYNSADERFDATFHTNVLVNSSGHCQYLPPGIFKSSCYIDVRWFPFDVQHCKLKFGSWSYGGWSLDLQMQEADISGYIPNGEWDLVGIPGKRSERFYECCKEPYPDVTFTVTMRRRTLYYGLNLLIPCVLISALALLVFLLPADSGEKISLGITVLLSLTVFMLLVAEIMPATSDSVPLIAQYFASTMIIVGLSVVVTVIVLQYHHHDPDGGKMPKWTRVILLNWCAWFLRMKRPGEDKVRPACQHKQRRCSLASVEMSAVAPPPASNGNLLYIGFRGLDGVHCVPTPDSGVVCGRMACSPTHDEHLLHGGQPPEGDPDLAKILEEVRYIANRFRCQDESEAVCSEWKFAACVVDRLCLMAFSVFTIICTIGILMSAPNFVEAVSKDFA
MEASUREMENT KIND: EC50 (µM)
Field: numeric (µM). Do not append units.

Q: Name the reported EC50 value associated with the compound CN1C2CCCC1CN(c1cccnc1)C2
Result: 13

====

biological target: nAChRs of the α4β2 subtype (Rattus norvegicus, UniProt P09483+P12390); experiment: In vitro inhibition of 3H-cytisine binding, rat cortex; details: ligand 3H-cytisine
Sequence (P09483 31-630): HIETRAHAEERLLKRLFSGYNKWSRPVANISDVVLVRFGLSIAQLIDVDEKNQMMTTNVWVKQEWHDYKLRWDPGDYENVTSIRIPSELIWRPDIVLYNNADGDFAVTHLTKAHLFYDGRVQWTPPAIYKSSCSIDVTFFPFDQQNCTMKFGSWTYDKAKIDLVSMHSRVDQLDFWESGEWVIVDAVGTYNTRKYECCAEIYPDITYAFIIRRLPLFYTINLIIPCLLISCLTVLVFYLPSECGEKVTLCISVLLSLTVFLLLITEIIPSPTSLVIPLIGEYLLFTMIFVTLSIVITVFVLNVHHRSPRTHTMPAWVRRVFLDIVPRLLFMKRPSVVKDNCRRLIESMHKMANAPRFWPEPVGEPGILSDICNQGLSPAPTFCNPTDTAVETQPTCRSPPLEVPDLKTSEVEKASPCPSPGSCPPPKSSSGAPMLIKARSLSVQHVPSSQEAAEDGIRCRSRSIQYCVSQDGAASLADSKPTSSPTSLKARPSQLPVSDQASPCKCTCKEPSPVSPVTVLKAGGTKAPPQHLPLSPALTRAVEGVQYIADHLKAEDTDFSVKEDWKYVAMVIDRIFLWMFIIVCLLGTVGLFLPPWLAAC
Sequence (P12390 25-500): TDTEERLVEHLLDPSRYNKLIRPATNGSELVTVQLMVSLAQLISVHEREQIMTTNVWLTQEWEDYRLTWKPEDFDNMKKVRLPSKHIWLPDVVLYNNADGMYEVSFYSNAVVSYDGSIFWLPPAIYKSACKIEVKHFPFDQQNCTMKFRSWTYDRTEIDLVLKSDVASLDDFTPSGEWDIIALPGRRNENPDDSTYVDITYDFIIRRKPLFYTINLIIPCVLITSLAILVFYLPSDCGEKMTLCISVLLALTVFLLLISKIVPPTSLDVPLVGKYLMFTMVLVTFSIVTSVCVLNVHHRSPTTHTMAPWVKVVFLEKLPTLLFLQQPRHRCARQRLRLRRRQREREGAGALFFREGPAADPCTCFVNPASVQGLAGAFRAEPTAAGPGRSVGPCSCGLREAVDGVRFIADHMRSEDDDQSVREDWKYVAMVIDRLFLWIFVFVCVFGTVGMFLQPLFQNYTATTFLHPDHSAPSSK
MEASUREMENT KIND: pKi
The read-out pKi is expressed as -log10 of concentration in moles per litre.

Q: May I ask what pKi has been recorded for CN1C2CCCC1CN(c1cccnc1)C2 ?
Result: 8.51

====

target: α7 (Rattus norvegicus, UniProt Q05941)
Sequence (Q05941 23-502): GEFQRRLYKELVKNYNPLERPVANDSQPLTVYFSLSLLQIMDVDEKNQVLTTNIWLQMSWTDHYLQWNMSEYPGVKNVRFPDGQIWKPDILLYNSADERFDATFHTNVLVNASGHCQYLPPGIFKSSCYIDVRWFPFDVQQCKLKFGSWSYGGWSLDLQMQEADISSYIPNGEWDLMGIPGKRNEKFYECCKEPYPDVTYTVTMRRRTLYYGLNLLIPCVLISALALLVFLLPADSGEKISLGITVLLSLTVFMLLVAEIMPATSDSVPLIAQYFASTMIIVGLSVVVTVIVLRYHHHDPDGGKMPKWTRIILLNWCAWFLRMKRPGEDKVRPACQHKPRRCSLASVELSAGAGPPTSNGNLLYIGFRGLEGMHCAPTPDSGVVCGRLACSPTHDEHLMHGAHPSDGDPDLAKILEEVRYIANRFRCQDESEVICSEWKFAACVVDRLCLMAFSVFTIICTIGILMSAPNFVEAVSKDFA
MEASUREMENT KIND: Ki

Q: # input compound: CN1C2CCCC1CN(c1cccnc1)C2 ; wanted: its Ki
Result: 290 nM

====

biological target: neuromuscular nAChRs subtype composed of α1β1γδ subunits (Homo sapiens, UniProt P02708+P07510+Q07001); construct: endogenous in cells; experiment: biochemical
Sequence (P02708 21-457): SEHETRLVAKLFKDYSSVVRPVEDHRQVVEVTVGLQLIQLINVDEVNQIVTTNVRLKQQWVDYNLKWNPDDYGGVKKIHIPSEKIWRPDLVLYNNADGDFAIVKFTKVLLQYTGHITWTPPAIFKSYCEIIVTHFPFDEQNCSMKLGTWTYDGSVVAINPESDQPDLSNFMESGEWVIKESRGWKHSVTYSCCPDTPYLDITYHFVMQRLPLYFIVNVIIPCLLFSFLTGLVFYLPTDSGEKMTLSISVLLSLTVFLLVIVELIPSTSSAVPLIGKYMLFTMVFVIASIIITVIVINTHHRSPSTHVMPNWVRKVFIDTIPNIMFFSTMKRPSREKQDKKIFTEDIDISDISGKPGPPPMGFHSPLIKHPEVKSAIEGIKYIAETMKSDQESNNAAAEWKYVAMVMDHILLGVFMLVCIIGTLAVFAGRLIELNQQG
Sequence (Q07001 22-517): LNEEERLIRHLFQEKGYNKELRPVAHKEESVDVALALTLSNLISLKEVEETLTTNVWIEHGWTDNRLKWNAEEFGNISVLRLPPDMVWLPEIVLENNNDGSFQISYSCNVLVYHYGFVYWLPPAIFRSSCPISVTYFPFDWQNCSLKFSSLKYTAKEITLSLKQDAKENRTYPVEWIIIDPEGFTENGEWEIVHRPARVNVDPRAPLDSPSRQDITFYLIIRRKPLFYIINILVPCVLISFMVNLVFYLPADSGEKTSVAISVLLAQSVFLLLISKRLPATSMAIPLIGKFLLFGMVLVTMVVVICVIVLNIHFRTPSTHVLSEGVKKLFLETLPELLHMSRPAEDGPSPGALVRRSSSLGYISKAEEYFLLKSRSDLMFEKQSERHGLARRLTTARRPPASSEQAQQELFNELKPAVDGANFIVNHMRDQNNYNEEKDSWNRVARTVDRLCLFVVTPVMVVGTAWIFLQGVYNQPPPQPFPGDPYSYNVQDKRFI
Sequence (P07510 23-517): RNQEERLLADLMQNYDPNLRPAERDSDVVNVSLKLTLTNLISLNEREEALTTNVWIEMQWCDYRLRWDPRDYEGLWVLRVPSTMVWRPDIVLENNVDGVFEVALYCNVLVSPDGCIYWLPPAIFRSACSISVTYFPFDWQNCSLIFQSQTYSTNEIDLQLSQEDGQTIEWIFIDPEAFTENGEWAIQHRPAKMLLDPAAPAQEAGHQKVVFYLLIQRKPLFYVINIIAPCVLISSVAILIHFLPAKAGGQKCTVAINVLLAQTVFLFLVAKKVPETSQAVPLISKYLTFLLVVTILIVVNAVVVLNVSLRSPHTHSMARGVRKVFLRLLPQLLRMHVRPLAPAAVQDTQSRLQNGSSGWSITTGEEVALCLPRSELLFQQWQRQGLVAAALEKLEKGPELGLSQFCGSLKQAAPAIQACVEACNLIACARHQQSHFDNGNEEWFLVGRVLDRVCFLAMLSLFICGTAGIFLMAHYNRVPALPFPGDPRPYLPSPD
Sequence (P11230 24-501, further chain): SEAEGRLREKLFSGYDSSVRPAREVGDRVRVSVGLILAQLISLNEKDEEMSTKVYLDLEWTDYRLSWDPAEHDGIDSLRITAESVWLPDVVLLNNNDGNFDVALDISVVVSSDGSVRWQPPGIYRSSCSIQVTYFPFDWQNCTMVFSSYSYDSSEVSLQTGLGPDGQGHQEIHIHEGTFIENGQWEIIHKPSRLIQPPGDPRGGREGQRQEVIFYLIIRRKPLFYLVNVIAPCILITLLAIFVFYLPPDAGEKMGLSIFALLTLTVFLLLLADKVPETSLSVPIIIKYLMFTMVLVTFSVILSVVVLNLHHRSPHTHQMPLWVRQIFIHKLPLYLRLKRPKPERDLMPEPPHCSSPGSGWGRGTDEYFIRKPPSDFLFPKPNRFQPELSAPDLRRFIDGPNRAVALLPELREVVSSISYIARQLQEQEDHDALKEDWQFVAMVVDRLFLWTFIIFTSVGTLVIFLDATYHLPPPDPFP
MEASUREMENT KIND: Ki (nM)
Write down the numeric answer in nM and omit the unit.

Q: Can you look up the measured Ki of CN1C2CCCC1CN(c1cccnc1)C2 for me?
Result: 320

Hello, the source for this data is patent US20180311238A1, in case you need it.
